experiment: Aqueous solubility as a function of pH (phosphate buffers, HPLC-UV); type: physicochemical; details: aqueous buffer, thermodynamic from solid; Phosphate Buffer pH 9, pH (24 h) 8.9, 25° C.; read-out: Conc. (mg/ml) 24 hours
readout_name: solubility thermodynamic at 24 h (mg/mL)
Dear colleague, please return just the value in mg/mL, with no unit written.

## Task Look at this compound and give its reported solubility thermodynamic at 24 h. Cl.Cl.NCCN[C@H]1CC[C@H](CC(=O)N[C@H]2Cc3cccc(C(=O)O)c3OB2O)CC1 [Form 1]
## Result 61.4

---

assay: Solubility of Compound 1-dihydrochloride in IPA/water mixtures; format: physicochemical; settings: IPA/water mixture, 40 °C, aqueous with cosolvent or surfactant or cyclodextrin, thermodynamic from solid, IPA/H2O (90:10), 40° C.
Counter-ions that a name gives are not always drawn.
readout_name: solubility at 24 h (µg/mL)
Write the number in µg/mL without appending the unit.

## Task Return reported solubility at 24 h; argument: NCCN[C@H]1CC[C@H](CC(=O)N[C@H]2Cc3cccc(C(=O)O)c3OB2O)CC1 [Compound 1-dihydrochloride]
## Result 5600

---

assay: Solubility of Compound 1-dihydrochloride in IPA/water mixtures; format: physicochemical; conditions: IPA/water mixture, 5 °C, aqueous with cosolvent or surfactant or cyclodextrin, thermodynamic from solid, IPA/H2O (50:50), 5° C.
Structures can show the parent of a compound that is named as a salt.
readout_name: solubility at 24 h (mg/mL)
Report the figure in mg/mL without appending any unit label.

## Task Which measured solubility at 24 h value corresponds to NCCN[C@H]1CC[C@H](CC(=O)N[C@H]2Cc3cccc(C(=O)O)c3OB2O)CC1 [Compound 1-dihydrochloride] ?
## Result 217

---

assay: Solubility of Compound 1-dihydrochloride in IPA/water mixtures; type: physicochemical; settings: IPA/water mixture, 25 °C, aqueous with cosolvent or surfactant or cyclodextrin, thermodynamic from solid, IPA/H2O (40:60), 25° C.
Counter-ions that a name gives are not always drawn.
readout_name: solubility at 24 h (mg/mL)
Just the number please, in mg/mL, no unit attached.

## Task Name the recorded solubility at 24 h for NCCN[C@H]1CC[C@H](CC(=O)N[C@H]2Cc3cccc(C(=O)O)c3OB2O)CC1 [Compound 1-dihydrochloride] .
## Result 429

---

experiment: Aqueous solubility as a function of pH (phosphate buffers, HPLC-UV); assay type: physicochemical; conditions: aqueous buffer, thermodynamic from solid; Phosphate Buffer pH 6, pH (4 h) 6.2, 25° C.; read-out: Conc. (mg/ml) 4 hours
readout_name: solubility at 4 h

## Task Looking for the measured solubility at 4 h of Cl.Cl.NCCN[C@H]1CC[C@H](CC(=O)N[C@H]2Cc3cccc(C(=O)O)c3OB2O)CC1 [Form 1] , can you help?
## Result > 135 mg/mL

---

assay: Aqueous solubility as a function of pH (phosphate buffers, HPLC-UV); format: physicochemical; conditions: aqueous buffer, thermodynamic from solid; Phosphate Buffer pH 7, pH (4 h) 7.1, 25° C.; read-out: Conc. (mg/ml) 4 hours
readout_name: solubility at 4 h

## Task Using the record for Cl.Cl.NCCN[C@H]1CC[C@H](CC(=O)N[C@H]2Cc3cccc(C(=O)O)c3OB2O)CC1 [Form 1] , report its solubility at 4 h.
## Result > 133 mg/mL

---

experiment: Aqueous solubility as a function of pH (phosphate buffers, HPLC-UV); type: physicochemical; settings: aqueous buffer, thermodynamic from solid; Phosphate Buffer pH 8, pH (4 h) 8.1, 25° C.; read-out: Conc. (mg/ml) 4 hours
readout_name: solubility at 4 h

## Task Given the entry Cl.Cl.NCCN[C@H]1CC[C@H](CC(=O)N[C@H]2Cc3cccc(C(=O)O)c3OB2O)CC1 [Form 1] , report its measured solubility at 4 h.
## Result > 127 mg/mL
